Origin of measurements: PubChem BioAssay

# composite z-score per entry
Tested on: Chordin-like protein 2 (CHRDL2)
Experiment: CHRDL2 small-molecule binders, primary screen, biochemical, small-molecule microarray, 635 nm fluorescence (AID 1126);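 also: printed compound slides probed with Chrdl2 protein at 4 µg/mL for 1 h at 4 C; score merges 667 nm emission intensity with signal to noise over three replicate slides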
Details: small-molecule microarray binding, fluorescence 635 nm; higher = more signal

• CC(C)CNC(=O)[C@@H]1c2ccccc2C(=O)N(C2Cc3ccccc3C2)[C@H]1c1ccc(CO)cc1 = -0.0902
• CC(C)C[C@@H]1NC(=O)[C@H]2C[C@@H](C(=O)NCCCCCCNC(=O)CS)[C@@H](c3ccc(O)cc3)N2C1=O = 0.986
• COC(=O)[C@@]1(Cc2ccc(F)cc2)[C@H]2c3cc(C(=O)N(C)C)n(CCO)c3C[C@H]2CN1C(=O)c1ccccc1 = -0.437

From here, focus on the item given below.
Req: Enter reported composite z-score observed with Chordin-like protein 2 (CHRDL2) for CC1CC/C=C\[C@H]2OC34C=CCN(c5ccc(Cl)cc5)C(=O)[C@H]3N(CCCO)C(=O)[C@]4(C)C2C(=O)O1 (some centres undefined)
Resp: -1.39

###

# composite z-score per entry
Tested on: Human papillomavirus type 1a E7 protein (residues 1-88)
Experiment: HPV1a E7 small-molecule binders, primary screen, biochemical, small-molecule microarray, residues 1-88, 635 nm (AID 1129)
Conditions: small-molecule microarray binding, fluorescence 635 nm; higher = more signal

Req: Given `CCOC(=O)C[C@H]1[C@H](OC(=O)c2cc3ccccc3oc2=O)[C@@H](NC(=O)C2CCCCC2)c2cc(OCCCO)ccc2N1C(=O)Cc1ccc(OC)cc1` , state its recorded composite z-score.
Resp: 0.122

Req: Given `COc1ccc(C#Cc2ccc3c(c2)[C@]2(C(=O)N3)[C@H](C(=O)Nc3nc4ccccc4s3)[C@H]3C(=O)O[C@H](c4ccccc4)[C@H](c4ccccc4)N3[C@@H]2c2ccc(OCCO)cc2)cc1` , state its recorded composite z-score.
Resp: 0.98

Req: Given `C[N+](C)(C)CCCCCCNC(=O)[C@@H]1C[C@@H]2C(=O)N[C@@H](Cc3ccccc3)C(=O)N2[C@@H]1c1ccc(O)cc1` , state its recorded composite z-score.
Resp: 1.21

###

Assay: basal MM1S mitochondrial membrane potential changes, profiling panel, cell-based, JC-1 fluorescence, 24 h, 100 nL compound (AID 1170); also: test concentration not given here
Conditions: higher = more signal
Returns 1 if the recorded z-score is greater than or equal to -0.3, and 0 otherwise.

Req: Decide: z-score of `O=C1O[C@H](c2ccccc2)[C@H](c2ccccc2)N2[C@H]1[C@@H](C(=O)N1CCN(c3ncccn3)CC1)[C@]1(C(=O)Nc3ccccc31)[C@H]2c1ccc(O)cc1` >= -0.3?
Resp: 1

Req: Decide: z-score of `COCC(=C=CC[C@@H](O)c1ccc(OCCO)cc1)C[C@@H](O)COCc1ccccc1` >= -0.3?
Resp: 0

Req: Decide: z-score of `CCOC(=O)C1=CC[C@@H](c2ccc(F)cc2)N(S(=O)(=O)c2ccc(C)cc2)[C@H]1c1ccc([N+](=O)[O-])cc1` >= -0.3?
Resp: 0

Req: Decide: z-score of `COCCOC(=O)N1C(=O)[C@@]2(c3cc(C#CC4=CCCCC4)ccc31)[C@H](c1ccccc1OCCO)N1[C@H](c3ccccc3)[C@H](c3ccccc3)OC(=O)[C@H]1[C@@H]2C(N)=O` >= -0.3?
Resp: 0

Req: Decide: z-score of `CC(C)C(=C=CC[C@@H](O)c1ccccc1OCCO)C[C@@H](O)c1cc(Cl)cc(Cl)c1O` >= -0.3?
Resp: 0

Req: Decide: z-score of `CCCC[C@H]1OB(O)C[C@H]2C1=C(C)C[C@H]1C(=O)C=CC(=O)[C@H]12` >= -0.3?
Resp: 0

Req: Decide: z-score of `C=CC[C@]1(C(=O)NCc2ccccc2)COC(c2ccc(OCCCO)cc2)=N1` >= -0.3?
Resp: 1

Req: Decide: z-score of `COCCOC(=O)N1C(=O)[C@@]2(c3cc(C#CCCO)ccc31)[C@H](C(=O)N1CCN(c3ncccn3)CC1)[C@H]1C(=O)O[C@H](c3ccccc3)[C@H](c3ccccc3)N1[C@@H]2c1ccc(O)cc1` >= -0.3?
Resp: 0

Req: Decide: z-score of CCCCN1CC=CC23O[C@@H]4C=CCOC(=O)[C@@H]4[C@H]2C(=O)N(C(CO)C(C)C)[C@@H]3C1=O (some centres undefined) >= -0.3?
Resp: 1

Req: Decide: z-score of `CO[C@H]1O[C@H](CO)[C@@H](OC(=O)Nc2ccccc2)[C@@H]2OC(=O)[C@H](Cc3ccccc3)C/C=C/C[C@@H](Cc3ccccc3)C(=O)O[C@@H]12` >= -0.3?
Resp: 0

Req: Decide: z-score of `N[C@@H](Cc1ccccc1)Cn1cc(C2(O)CCCCC2)nn1` >= -0.3?
Resp: 0

Req: Decide: z-score of `COC(=O)[C@@]1(Cc2ccccc2)[C@@H]2[C@@H](CC(=O)[C@H]2CC(=O)C(=O)N(C)C)CN1C(=O)c1ccccc1` >= -0.3?
Resp: 0

Req: Decide: z-score of `CO[C@H]1O[C@H](CO)[C@@H](OC(=O)Nc2ccc3c(c2)OCO3)[C@@H]2OC(=O)[C@@H](Cc3ccccc3)C/C=C/C[C@H](Cc3ccccc3)C(=O)O[C@@H]12` >= -0.3?
Resp: 0

Req: Decide: z-score of CC1CC/C=C\[C@H]2OC34C=CCN(c5ccc(Cl)cc5)C(=O)[C@H]3N(CCCO)C(=O)[C@]4(C)C2C(=O)O1 (some centres undefined) >= -0.3?
Resp: 1

###

Assay: A549 cell viability effects, profiling panel, calcein-AM fluorescence, 48 h, basal (AID 1162); also: test concentration not given here
Details: higher = more signal
Returns true if the recorded z-score is greater than or equal to -0.09, and false otherwise.

Reference set, count: 6
* C[C@H]1C2[C@H](Cc3ccccc3)NC(=O)[C@]23C(=O)NCC(=O)N2CCC[C@H]2C(=O)NC/C=C\C/C=C/C3[C@@H]2O[C@]12C (some centres not stated) | true
* CCCCC(O)C1C=CC2C(=O)NC(=O)C2N1Nc1ccccn1 (configuration not stated) | false
* CCOC(=O)C1=CC[C@@H](c2ccccc2)N(S(=O)(=O)c2ccc(C)cc2)[C@H]1C#N | false
* COCCOC(=O)N1C(=O)[C@@]2(c3cc(C#CCCO)ccc31)[C@H](c1ccccc1OCCO)N1[C@H](c3ccccc3)[C@H](c3ccccc3)OC(=O)[C@H]1[C@@H]2C(=O)N1CCc2cc(OC)c(OC)cc2C1 | true
* CN(C)CCCCNC(=O)[C@H]1C[C@H]2C(=O)N[C@@H](Cc3ccccc3)C(=O)N2[C@H]1c1cccc(OCCO)c1 | false
* CN1C(=O)[C@]2(CCC(=O)OC(C)(C)C)N=C(c3ccc(OCCCO)cc3)O[C@@H]2c2ccccc21 | true

Req: Decide: z-score of `C=C(CCCC)/C(=C/C[C@H](OC(C)=O)c1cccc(OCCO)c1)c1cc(C(=O)OC)ccc1OC` >= -0.09?
Resp: true

Req: Decide: z-score of C=CC(CO)NC(=O)OCC1c2ccccc2-c2ccccc21 (configuration not stated) >= -0.09?
Resp: false

Req: Decide: z-score of `Cc1c(-c2ccc(-c3ccc(Cl)c(Cl)c3)o2)nc(-c2ccccc2)c2c1CO[Si]2(C(C)C)C(C)C` >= -0.09?
Resp: false

Req: Decide: z-score of `COc1ccccc1CN1C(=O)c2ccccc2[C@@H](C(=O)NCCCN(C)C)[C@@H]1c1ccc(CO)cc1` >= -0.09?
Resp: true

Req: Decide: z-score of C=CCC(OC(C)=O)[C@@H]1[C@@H](N(Cc2cccc3ccccc23)C(=O)c2ccc(-c3ccccc3)cc2)c2cc(OCCCO)ccc2N1C(=O)c1ccc2ccccc2n1 (some centres not stated) >= -0.09?
Resp: false

Req: Decide: z-score of CCN(CC)c1ccc(N2CC=CC34O[C@@H]5C=CCOC(=O)[C@@H]5[C@H]3C(=O)N(CCCO)[C@@H]4C2=O)cc1 (some centres not stated) >= -0.09?
Resp: true

Req: Decide: z-score of CCC(CC)C(O)C1C=CC2C(=O)N(C)C(=O)C2N1N1CCCCC1 (configuration not stated) >= -0.09?
Resp: true

Req: Decide: z-score of O=C1C2C=CC(C(O)c3cccc(O)c3)N(Nc3ccccc3F)C2C(=O)N1c1ccccc1 (configuration not stated) >= -0.09?
Resp: false

Req: Decide: z-score of `CCOC(=O)C1=C[C@@H](C(C)(C)C)N(S(=O)(=O)c2ccc(C)cc2)[C@H]1c1ccccc1Cl` >= -0.09?
Resp: false

Req: Decide: z-score of C=CCC(OC(C)=O)[C@@H]1[C@@H](N(Cc2ccc(-c3ccccc3)cc2)C(=O)c2cccc3ccccc23)c2cc(OCCCO)ccc2N1C(=O)c1ccc2ccccc2c1 (some centres not stated) >= -0.09?
Resp: true
